# Tested on: Escherichia coli 2018
Task for the reader: assign each of the following compounds its reported MIC.
Give bare numbers, in µg/mL.

I have 2 compounds here; please give me MIC for each one.
1. CCOC(=O)C1CCN(c2nc3c([nH]2)c2c(O)c4c(O)c(C)c5c(c43)C(=O)[C@@](C)(O/C=C/[C@H](OC)[C@@H](C)[C@@H](OC(C)=O)[C@H](C)[C@H](O)[C@H](C)[C@@H](O)[C@@H](C)/C=C/C=C(/C)C(=O)N2)O5)CC1 [Verbindung 22]
2. C#CCN1CCN(c2nc3c([nH]2)c2c(O)c4c(O)c(C)c5c(c43)C(=O)[C@@](C)(O/C=C/[C@H](OC)[C@@H](C)[C@@H](OC(C)=O)[C@H](C)[C@H](O)[C@H](C)[C@@H](O)[C@@H](C)/C=C/C=C(/C)C(=O)N2)O5)CC1 [Verbindung 49]

Result:
8
32

* * *

# Test system: Proteus morganii 1518
Task for the reader: assign each of the following compounds its reported MIC.
Answers are plain numbers, in µg/mL.

I have 4 compounds here; please give me MIC for each one.
1. CO[C@H]1/C=C/O[C@@]2(C)Oc3c(C)c(O)c4c(O)c(c5[nH]c(N6CCN(CC(C)=C(C)C)CC6)nc5c4c3C2=O)NC(=O)/C(C)=C\C=C\[C@H](C)[C@H](O)[C@@H](C)[C@@H](O)[C@@H](C)[C@H](OC(C)=O)[C@@H]1C
2. COC1C=COC2(C)Oc3c(C)c(O)c4c(O)c(c5nc(N6CCOCC6)[nH]c5c4c3C2=O)NC(=O)C(C)=CC=CC(C)C(O)C(C)C(O)C(C)C(OC(C)=O)C1C (stereo not shown)
3. CCCN(CC1CC1)c1nc2c3c(O)c4c(O)c(C)c5c(c4c2[nH]1)C(=O)C(C)(OC=CC(OC)C(C)C(OC(C)=O)C(C)C(O)C(C)C(O)C(C)C=CC=C(C)C(=O)N3)O5 (stereo not shown)
4. CO[C@H]1/C=C/O[C@@]2(C)Oc3c(C)c(O)c4c(O)c(c5nc(N6CCN(c7ccccc7)CC6)[nH]c5c4c3C2=O)NC(=O)/C(C)=C\C=C\[C@H](C)[C@H](O)[C@@H](C)[C@@H](O)[C@@H](C)[C@H](OC(C)=O)[C@@H]1C

Result:
1. 8
2. 4
3. 2
4. 8

* * *

Record type: MIC measurement. Applies to: Escherichia coli 2018
Numbers only, in µg/mL.

Examples from the recorded data:
compound	MIC (µg/mL)
CO[C@H]1/C=C/O[C@@]2(C)Oc3c(C)c(O)c4c(O)c(c5[nH]c(N(C)C6CCN(C)CC6)nc5c4c3C2=O)NC(=O)/C(C)=C\C=C\[C@H](C)[C@H](O)[C@@H](C)[C@@H](O)[C@@H](C)[C@H](OC(C)=O)[C@@H]1C [Verbindung 13]	8
CO[C@H]1/C=C/O[C@@]2(C)Oc3c(C)c(O)c4c(O)c(c5nc(N6CCN(c7cccc(C(F)(F)F)c7)CC6)[nH]c5c4c3C2=O)NC(=O)/C(C)=C\C=C\[C@H](C)[C@H](O)[C@@H](C)[C@@H](O)[C@@H](C)[C@H](OC(C)=O)[C@@H]1C [Verbindung 53]	8
CO[C@H]1/C=C/O[C@@]2(C)Oc3c(C)c(O)c4c(O)c(c5[nH]c(N6CCN(CCC(C)C)CC6)nc5c4c3C2=O)NC(=O)/C(C)=C\C=C\[C@H](C)[C@H](O)[C@@H](C)[C@@H](O)[C@@H](C)[C@H](OC(C)=O)[C@@H]1C [Verbindung 40]	8

I have 5 compounds here; please give me MIC for each one.
1. COCCN(CCOC)c1nc2c([nH]1)c1c(O)c3c(O)c(C)c4c(c32)C(=O)[C@@](C)(O/C=C/[C@H](OC)[C@@H](C)[C@@H](OC(C)=O)[C@H](C)[C@H](O)[C@H](C)[C@@H](O)[C@@H](C)/C=C/C=C(/C)C(=O)N1)O4 [Verbindung 16]
2. COC1C=COC2(C)Oc3c(C)c(O)c4c(O)c(c5nc(N(C)C6CCCC6)[nH]c5c4c3C2=O)NC(=O)C(C)=CC=CC(C)C(O)C(C)C(O)C(C)C(OC(C)=O)C1C (centres unmarked) [Verbindung 10]
3. CO[C@H]1/C=C/O[C@@]2(C)Oc3c(C)c(O)c4c(O)c(c5[nH]c(N6CCC(N(C)C)CC6)nc5c4c3C2=O)NC(=O)/C(C)=C\C=C\[C@H](C)[C@H](O)[C@@H](C)[C@@H](O)[C@@H](C)[C@H](OC(C)=O)[C@@H]1C [Verbindung 23]
4. COC1C=COC2(C)Oc3c(C)c(O)c4c(O)c(c5nc(N6CCN(C)CC6)[nH]c5c4c3C2=O)NC(=O)C(C)=CC=CC(C)C(O)C(C)C(O)C(C)C(OC(C)=O)C1C (centres unmarked) [Verbindung 3]
5. CO[C@H]1/C=C/O[C@@]2(C)Oc3c(C)c(O)c4c(O)c(c5nc(N6CCN(C7CCCC7)CC6)[nH]c5c4c3C2=O)NC(=O)/C(C)=C\C=C\[C@H](C)[C@H](O)[C@@H](C)[C@@H](O)[C@@H](C)[C@H](OC(C)=O)[C@@H]1C [Verbindung 50]

Result:
[8, 4, 8, 16, 8]

* * *

Task for the reader: assign each of the following compounds its reported MIC.
# System: Pseudomonas aeruginosa K 799/61
# test.details: Agar dilution MIC in DST agar (Ericsson and Sherris)
# Format: cell-based
# particulars: Pseudomonas aeruginosa, K799/61, read-out: MIC Pseu. 799
Report field: quantity (unit follows the number).

compound	target.desc	recorded.measurement
COC1C=COC2(C)Oc3c(C)c(O)c4c(O)c(c5nc(N(C)C6CCCC6)[nH]c5c4c3C2=O)NC(=O)C(C)=CC=CC(C)C(O)C(C)C(O)C(C)C(OC(C)=O)C1C (stereo not shown) [Verbindung 10]	Pseudomonas aeruginosa K 799/61	8 mg/L
CO[C@H]1/C=C/O[C@@]2(C)Oc3c(C)c(O)c4c(O)c(c5nc(N6CCN(c7ccccc7)CC6)[nH]c5c4c3C2=O)NC(=O)/C(C)=C\C=C\[C@H](C)[C@H](O)[C@@H](C)[C@@H](O)[C@@H](C)[C@H](OC(C)=O)[C@@H]1C [Verbindung 52]	Pseudomonas aeruginosa K 799/61	32 mg/L
CCC(C)CCN1CCN(c2nc3c([nH]2)c2c(O)c4c(O)c(C)c5c(c43)C(=O)[C@@](C)(O/C=C/[C@H](OC)[C@@H](C)[C@@H](OC(C)=O)[C@H](C)[C@H](O)[C@H](C)[C@@H](O)[C@@H](C)/C=C/C=C(/C)C(=O)N2)O5)CC1 (stereo partly shown) [Verbindung 42]	Pseudomonas aeruginosa K 799/61	32 mg/L

I have 5 compounds here; please give me MIC for each one.
1. C#CCN1CCN(c2nc3c([nH]2)c2c(O)c4c(O)c(C)c5c(c43)C(=O)[C@@](C)(O/C=C/[C@H](OC)[C@@H](C)[C@@H](OC(C)=O)[C@H](C)[C@H](O)[C@H](C)[C@@H](O)[C@@H](C)/C=C/C=C(/C)C(=O)N2)O5)CC1 [Verbindung 49]
2. CO[C@H]1/C=C/O[C@@]2(C)Oc3c(C)c(O)c4c(O)c(c5[nH]c(N6CCN(CC(C)=C(C)C)CC6)nc5c4c3C2=O)NC(=O)/C(C)=C\C=C\[C@H](C)[C@H](O)[C@@H](C)[C@@H](O)[C@@H](C)[C@H](OC(C)=O)[C@@H]1C [Verbindung 48]
3. CCN(CC)CCN(CC)c1nc2c([nH]1)c1c(O)c3c(O)c(C)c4c(c32)C(=O)[C@@](C)(O/C=C/[C@H](OC)[C@@H](C)[C@@H](OC(C)=O)[C@H](C)[C@H](O)[C@H](C)[C@@H](O)[C@@H](C)/C=C/C=C(/C)C(=O)N1)O4 [Verbindung 18]
4. CO[C@H]1/C=C/O[C@@]2(C)Oc3c(C)c(O)c4c(O)c(c5nc(N6CCN(C7CCCC7)CC6)[nH]c5c4c3C2=O)NC(=O)/C(C)=C\C=C\[C@H](C)[C@H](O)[C@@H](C)[C@@H](O)[C@@H](C)[C@H](OC(C)=O)[C@@H]1C [Verbindung 50]
5. CO[C@H]1/C=C/O[C@@]2(C)Oc3c(C)c(O)c4c(O)c(c5nc(N6CCN(c7cccc(C(F)(F)F)c7)CC6)[nH]c5c4c3C2=O)NC(=O)/C(C)=C\C=C\[C@H](C)[C@H](O)[C@@H](C)[C@@H](O)[C@@H](C)[C@H](OC(C)=O)[C@@H]1C [Verbindung 53]

Result:
8 mg/L
32 mg/L
8 mg/L
8 mg/L
32 mg/L

I have 7 compounds here; please give me MIC for each one.
1. CO[C@H]1/C=C/O[C@@]2(C)Oc3c(C)c(O)c4c(O)c(c5[nH]c(N6CCC(N(C)C)CC6)nc5c4c3C2=O)NC(=O)/C(C)=C\C=C\[C@H](C)[C@H](O)[C@@H](C)[C@@H](O)[C@@H](C)[C@H](OC(C)=O)[C@@H]1C [Verbindung 23]
2. CO[C@H]1/C=C/O[C@@]2(C)Oc3c(C)c(O)c4c(O)c(c5[nH]c(N6CCCCC6)nc5c4c3C2=O)NC(=O)/C(C)=C\C=C\[C@H](C)[C@H](O)[C@@H](C)[C@@H](O)[C@@H](C)[C@H](OC(C)=O)[C@@H]1C [Verbindung 21]
3. CCN(CC)c1nc2c3c(O)c4c(O)c(C)c5c(c4c2[nH]1)C(=O)C(C)(OC=CC(OC)C(C)C(OC(C)=O)C(C)C(O)C(C)C(O)C(C)C=CC=C(C)C(=O)N3)O5 (stereo not shown) [Verbindung 6]
4. CO[C@H]1/C=C/O[C@@]2(C)Oc3c(C)c(O)c4c(O)c(c5nc(N6CCN(Cc7ccccn7)CC6)[nH]c5c4c3C2=O)NC(=O)/C(C)=C\C=C\[C@H](C)[C@H](O)[C@@H](C)[C@@H](O)[C@@H](C)[C@H](OC(C)=O)[C@@H]1C [Verbindung 60]
5. CO[C@H]1/C=C/O[C@@]2(C)Oc3c(C)c(O)c4c(O)c(c5[nH]c(N6CCN(CCC(C)C)CC6)nc5c4c3C2=O)NC(=O)/C(C)=C\C=C\[C@H](C)[C@H](O)[C@@H](C)[C@@H](O)[C@@H](C)[C@H](OC(C)=O)[C@@H]1C [Verbindung 40]
6. CO[C@H]1/C=C/O[C@@]2(C)Oc3c(C)c(O)c4c(O)c(c5[nH]c(N(C)C6CCN(C)CC6)nc5c4c3C2=O)NC(=O)/C(C)=C\C=C\[C@H](C)[C@H](O)[C@@H](C)[C@@H](O)[C@@H](C)[C@H](OC(C)=O)[C@@H]1C [Verbindung 13]
7. COC1C=COC2(C)Oc3c(C)c(O)c4c(O)c(c5nc(N6CCN(CC(C)C)CC6)[nH]c5c4c3C2=O)NC(=O)C(C)=CC=CC(C)C(O)C(C)C(O)C(C)C(OC(C)=O)C1C (stereo not shown) [Verbindung 4]

Result:
1: 16 mg/L; 2: 16 mg/L; 3: 128 mg/L; 4: 64 mg/L; 5: 16 mg/L; 6: 8 mg/L; 7: 8 mg/L

Ask: Suppose we examine the compound CO[C@H]1/C=C/O[C@@]2(C)Oc3c(C)c(O)c4c(O)c(c5nc(N6CCN(CC7CCCCCC7)CC6)[nH]c5c4c3C2=O)NC(=O)/C(C)=C\C=C\[C@H](C)[C@H](O)[C@@H](C)[C@@H](O)[C@@H](C)[C@H](OC(C)=O)[C@@H]1C [Verbindung 56] ; what MIC value has been reported?
Result: 32 mg/L

Data provenance: patent EP0049683A2
